# System: sowthistle (common sowthistle, Sonchus oleraceous)
# Assay: Test D pre-/postemergence plant response
# Format: in vivo
# Recorded conditions: Postemergence, 31 g ai/ha; scale 0 to 100
Catalogue of Plant response rating, Sowthistle readings, one per entry.

* COCCn1c(-c2ccccc2)ncc(C(=O)C2=C(O)CCCC2=O)c1=O | 100
* O=C1CCCC(O)=C1C(=O)c1cnc(-c2ccccc2)n(CC2CCCO2)c1=O (stereo not shown) | 100
* COCCn1c(-c2cc(F)cc(F)c2)ncc(C(=O)C2=C(O)C3CCC(C3)C2=O)c1=O (stereo not shown) | 90

Then this compound:
Q) Need Plant response rating, Sowthistle of COCCn1c(-c2cccc(F)c2)ncc(C(=O)C2=C(O)C3CCC(C3)C2=O)c1=O (stereo not shown) , thanks.
A) 98
